Experiment: soluble fraction after stress (log2 fold change); higher = more stays soluble; pooled small domains, quantitative proteomics
Conditions: stress: pH 4
Listed below: soluble fraction (log2) values for each entry.
Number, no unit, nothing else.

Solved entries:
1) HMKVQEMTANSFLTQWEAGNVKTLDILPEGIIKGELNDGTKFQLYYSSAAGLIDDVKKNPEKFANTTVSEK ... -0.238
2) HMFPQQGEIRQGVIASITPDQILVNVGTKSEGIISGKELEAISKSERDSLNVDQKIAVYILDPEDSNG ... -0.391
3) HMQLDDDQKEELILKLIDSLDTTKKGAPLTELAREAAKSNIGESELEEITTSLLDKGLVYEPTIGKMKR ... 0.0111
4) HMTDPVLYEERDDIAIITINRPEKKNTLTDAVIQGIADGIDAATKSADVVAVVLRGAGDTLTAGYDLTA ... -1.28
5) HMRDPLNTGFRQTLKDIVNSLPKNELYSPGVREEYIYPKIGVTSLGMEASMVLNGLISSRRKNIELKEKN ... 0.179
6) HMKKRDAEIMLQREFKLTEAIAMVRDRDIQELLPIALYFKVNINQPTAEIRYNLLNIAKSKTQEFIEAFD ... -1.03
7) HMSGQLTEEQVKQIVTTAVKNSSGSTLTAAEVSRIVSTAVANNLTADQVKTVVNNALAGITTDISTLKA ... 0.202

Data point: `HMRILGIDPGYAITGYSIIDYVGNKFKLIDSGAVLTKAGVSFPLRLTKIYDDLSMIIDEYKPDA` ; soluble fraction (log2) = -0.42

###

Test: soluble fraction after stress (log2 fold change); higher = more stays soluble; pooled small domains, quantitative proteomics
Conditions: stress: pH 4
Label scheme for soluble fraction (log2): lower than -0.09 is False, -0.09 and above is True.

The following sequences have reported results that may help.
1. HMEFPLSPHQYSVLRLMAQGLSNKQIAERLFLSENTVKGYVQEVLRRLGARNRLEAVMIANRRGWL ... False
2. HMELLPAERRQQLVDWFKSNQAGTSQDLARMFGISVSTIRRDLDLLASEGLVKRTHGGAVSIR ... True
3. HMKTDLQIQQDVMAELKWEPKVNAAHIGVEVKHGVVTLSGHVDSFAEKWNAEQAAKRVAGVKFIAIELDV ... True
4. HMRTNVDISPKILEWVLSQVRNRTTNDVIETIQIWIKGEKPPTFNQVEKISKATGVPLGYFFLKTPPVED ... False
5. HMGNGALLTLTVKERQVIQLVAEGKSNKQIARDLNVTPETIKSHMKNIFAKLKVDNRAQAAVMVQQ ... True
6. HMGEQLALLERARTLLEDETLETEVQKELEMLLEDIEAARAEANATQLEDLFEELADLLFDLE ... False

Turning now to a further sequence:
Textbook exercise: given the entry `HMPDKIDSAAQGILDKLIRNDGFMAVTDKSPPEAIYKLFGVSKKVFKQAIGSLYKNRLITIEDAGLRIIPQ` , state whether its soluble fraction (log2) is greater than or equal to -0.09.
False

###

Assay: soluble fraction after stress (log2 fold change); higher = more stays soluble; pooled small domains, quantitative proteomics
Conditions: stress: pH 4
Here the recorded soluble fraction (log2) is given for each entry.

Consider the worked cases shown below.
1) HMKTEIKSPLPGIVLKIFVRTGEYVDKNQRLFSLEAMKMENEIKAERAGVIAGIRISEGQSVLQDEVIMEM ... -0.288
2) HMFHDALVSFAERRVIFMKELVNRLNEARKAYYEGESIMSDKEYDNLYDKLVKMELTTGVVLPNSPTEEVG ... -0.754
3) HMGIVAPGTLKHLHAVGNSYYPDWETKRHELVTAVTKGRTSSSKELYEAEANRLITRIEELLMTAAQSV ... -0.548
4) HMLRMTRNRQKLVEVLMESGRPLSADEIREAAGFASTDLVTVYRNLEAFQSAGLLQRIPLENGSQLFELT ... -0.269
5) HMDNREKLRQEFLENLKELQEQNDIPQQEIDRVILDYDGVAEFLEDEGALKRYGGQLVDMTAYRAGAIPS ... -2

What the record says about `HMSDGDFLQKIAEEILAQFPDKVKEYQKGKKGLIGFFMGELMKRSKGKADPKVATRILEEILSEKNGSS` : soluble fraction (log2) is -0.609

Per the records, this sequence ( `HMTSKVTVLAVNGRITVSGKEQDETVSVYDTGGRLLYQGESDVINVPRKAMYIVTVSRKSYKVIV` ) has soluble fraction (log2) equal to 0.00912

Per the records, this sequence ( `HMRDQARQFFIDTWAKFQRHDALTPLEEKTAAIIALHPEYHRVLQNPESFITTDWRPESGDINPFMHL` ) has soluble fraction (log2) equal to -0.803

Summary for this sequence, `HMPNIQLARNLKYLRLAYGLTQDDLGAFLNISRQAYSNYENLKRSPDLDSLIRLASLYHLSLDDLVSR` : soluble fraction (log2) is -1.24

Just so you know, measured soluble fraction (log2) for `HMFDDLSTNLRDLAHNYIEKYSPSKQQLKVFLLKKYLMKFKGSKTKKEISEIIDKIISNLEENKYLNDEL` came out at 0.179

###

Assay: soluble fraction after stress (log2 fold change); higher = more stays soluble; pooled small domains, quantitative proteomics
Conditions: stress: pH 4
observedProperty: soluble fraction (log2)
Answer using only a numeral; do not append any unit.

Some solved cases for reference:
1. HMATYETEVISGVNLRSAPNTSASVYRLLSKGEDIHVIQKVNDYWLKVQTKDGKIGYISASSKYTNYIA ... -0.132
2. HMLVIMKTGASEEEIGRVIERIEGEGLSAHVSRGTERTVIGVIGQGVDVHRIAGVLGGMSGVESLVPIS ... 0.0269
3. HMRQMSEELQSAKEALEDRRTQEKAVLLLMEHRNISNDEAHRLLRKLAMDQGKRLPEVARALVSMAGVL ... -0.203
4. HMTYNEYPEKEMQDLIDKSISQQEQAASQYGYSLGDYVTARYGFQSESDFREYVQGLAEDYMKEKI ... -1.33
5. HMKPAFTPYVVKVTADVLNVRSGPGTNYGITTKVKKGEAYTIVEEKNGWGKLKSGAGWISLEYTVK ... -0.0552

Memo: `HMKQNRNLPVQIINNGKIIESVMTEFNLDIDWVYSEAKRLGYKNIKDIFYAGINRDGQFFIVPLF` , reported soluble fraction (log2): -1.35

###

Assay: soluble fraction after stress (log2 fold change); higher = more stays soluble; pooled small domains, quantitative proteomics
Conditions: stress: pH 4
Measured soluble fraction (log2), listed per entry.
Keep the answer to the number alone.

1. HMETIHEMVNRLSSEGFIKNEDGIWYLRDRRGDGTKWLKNPFFESTGEKDAFALIDHLKVNDELLSKLRK ... -0.433
2. HMFEKVKLTLTIPSKYSGSTYSALRNRMNKFSKEEWLSNGDLKIEIEVTGGQKTDIYTLINKLTNGEAIIE ... -0.203
3. HMDRDQNVEEGQRSLKSEMGRFGLLIANMDDLAERVNYGNAEDMYAAIGAGDLRLMQVVHAAEEMLG ... -0.61
4. HMRGAIKMAEEQMAGHKKIGSISGTAPTQGELEKKFAMAAAQMGARYYVITGLSNNNYAFGNADIY ... -0.194
5. HMDEWKRKELWDAIARLPKIQRMVVTMRTTENLPYKEIAKIMNISENSAKVNYHHAVEALKIFF ... 0.0454
6. HMAAHHIILEEREQLSVSGVEEVESFDENTIVMLTNRGTLIVRGEELHIEKLSLDGGDLRVEGSIDSLTYE ... -1.09
7. HMNPYQDSILLWKSFDTPLTNEDFMGLSKEELRIARNEIYAAYGRIFTSQDLIDYFNSKPWYQGTTPA ... -0.883

Now for another entry.
Per the records, this sequence ( `HMQITDTEAIATTLDEIIAANPKEWERLKAGQEQLVKFFVGQVMRVTKGRANPQVVNDLLKERL` ) has soluble fraction (log2) equal to 0.186

###

Listed below: soluble fraction (log2) values for each entry.
Assay: soluble fraction after stress (log2 fold change); higher = more stays soluble; pooled small domains, quantitative proteomics
Conditions: stress: pH 4
Lab note: record the figure alone, no unit after it.

Examples from the recorded data:
1) HMSPTEQEKIGLFIKKLREEKNLTQEAFASLLKTSQSAVARIESGNQNITIEQLMKIGEVLNHNIVSI ... -0.215
2) HMNIGIVSLAAVPMRKEPSDRAEMVNQILFGETFDVLEEQEKWTLVQLHHDAYQGWIDRKQWDYASGIAD ... -1.3

soluble fraction (log2) recorded for this sequence, `HMFERIYVFSRDGDIIELPKGSTVLDFAYHVHTHVGNRAQAARVNKRYVPLTYQLKTGEQVEIIIS` , is -1.05

Form field soluble fraction (log2), entry `HMSSPRAIYSAIQKAVGEDMILYREDVQIILDKLDADLLVDDILEKMELDGTLVRQRDGTWLLL` : -1.01

Ref: the domain aggregation screens of Martell et al. (2025)
